STUDY SYSTEM: human DP2 (Homo sapiens, UniProt Q9Y5Y4)
Construct: expressed in transfected cells; membranes prepared
Sequence (Q9Y5Y4 whole entry): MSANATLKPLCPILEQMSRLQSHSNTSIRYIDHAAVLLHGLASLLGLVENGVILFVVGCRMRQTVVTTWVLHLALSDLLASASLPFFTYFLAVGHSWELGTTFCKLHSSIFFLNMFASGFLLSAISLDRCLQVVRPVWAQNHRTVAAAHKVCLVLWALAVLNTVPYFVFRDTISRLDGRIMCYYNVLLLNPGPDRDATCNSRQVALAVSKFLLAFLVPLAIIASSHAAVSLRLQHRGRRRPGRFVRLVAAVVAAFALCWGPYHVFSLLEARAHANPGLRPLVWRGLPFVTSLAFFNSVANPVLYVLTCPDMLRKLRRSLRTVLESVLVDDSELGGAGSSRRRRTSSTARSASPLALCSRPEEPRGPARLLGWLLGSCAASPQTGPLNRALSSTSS
ASSAY PROTOCOL: DP-2 binding inhibition assay (3H-PGD2, membranes of DP2-expressing K562 cells)
SETUP CONDITIONS: 0.1% BSA, read-out: EC50 (nM) 0.1% BSA
REPORTED METRIC: EC50 (nM)

P. N#Cc1cc2c(cc1Oc1ccc(C(=O)Nc3nc4c(Cl)cccc4s3)cc1)OCCC2C(=O)O (stereo not shown) [Example 199]
Q. N#Cc1cc2c(cc1Oc1ccc(C(=O)Nc3nc4ccc(C(F)(F)F)cc4s3)cc1)OCCC2C(=O)O (stereo not shown) [Example 201]
R. O=C(Nc1ccc(-c2ccc(C(F)(F)F)cc2)nn1)c1ccc(Oc2cc3c(cc2Cl)C(C(=O)O)CCO3)cc1 (stereo not shown) [Example 98]
S. O=C(Nc1ccc(C(F)(F)F)nc1)c1ccc(Oc2cc3c(cc2Cl)C(C(=O)O)CCO3)cc1 (stereo not shown) [Example 29]
T. O=C(Nc1ccc(-c2ccc(C(F)(F)F)cc2)nn1)c1ccc(Oc2cc3c(cc2Cl)C(C(=O)O)CCO3)cc1 (single isomer, unassigned; enantiomer 2) [Example 185]
-- ask Falling order of EC50, please. Your answer should be the labels, listed in the requested order.
-- reply S, R, P, Q, T

1. COc1ccc2nc(NC(=O)c3ccc(Oc4cc5c(cc4C#N)C(C(=O)O)CCO5)cc3)sc2c1 (stereo not shown) [Example 197]
2. Cc1nc2ccc(NC(=O)c3ccc(Oc4cc5c(cc4C#N)C(C(=O)O)CCO5)cc3)cc2s1 (stereo not shown) [Example 189]
-- ask Name the one with the greater EC50 value, either 1 or 2 as given. API: response body contains the label of the selected item.
-- reply 2
(2: 43.3 nM, 1: 9.3 nM)

1. N#Cc1cc2c(cc1Oc1ccc(C(=O)Nc3cnc4ccccc4c3)cc1)OCCC2C(=O)O (stereo not shown) [Example 10]
2. N#Cc1cc2c(cc1Oc1ccc(C(=O)Nc3nc4ccc(Cl)cc4s3)cc1)OCCC2C(=O)O (stereo not shown) [Example 196]
-- ask Returns: the argument ( 1 or 2 ) having the larger EC50. Answer by stating the label of the chosen item.
-- reply 1

1. N#Cc1cc2c(cc1Oc1ccc(C(=O)Nc3ccc(C(F)(F)F)cn3)cc1)OCCC2C(=O)O (stereo not shown) [Example 1]
2. O=C(Nc1cccc(-c2ccc(Cl)cc2)n1)c1ccc(Oc2c(Cl)cc3c(c2C2CC2)OCCC3C(=O)O)cc1 (stereo not shown) [Example 108]
3. N#Cc1cc2c(cc1Oc1ccc(C(=O)Nc3cnc4ccccc4n3)cc1)OCCC2C(=O)O (stereo not shown) [Example 4]
4. Cc1nsc2ccc(NC(=O)c3ccc(Oc4cc5c(cc4C#N)C(C(=O)O)CCO5)cc3)cc12 (stereo not shown) [Example 190]
5. Cc1noc(C)c1CCNC(=O)c1ccc(Oc2cc3c(cc2C#N)C(C(=O)O)CCO3)cc1 (stereo not shown) [Example 198]
-- ask // sort entries: EC50, high to low # respond with the labels, arranged in the requested order
-- reply 5, 4, 3, 1, 2
(5: 1240 nM, 4: 49.3 nM, 3: 27.7 nM, 1: 19.3 nM, 2: 8 nM)

a. N#Cc1cc2c(cc1Oc1ccc(C(=O)Nc3nc4c(F)cc(F)cc4s3)cc1)OCCC2C(=O)O (stereo not shown) [Example 202]
b. N#Cc1cc2c(cc1Oc1ccc(C(=O)Nc3ccc4cc(Cl)ccc4n3)cc1)OCCC2C(=O)O (stereo not shown) [Example 5]
-- ask In the pair a and b , the larger recorded EC50 belongs to which? Write the label of whichever entry you select.
-- reply a
(a: 24.5 nM, b: 5.9 nM)
